Please provide measured abundance fitness for the entries that follow.
B1: GA-binding protein alpha chain, residues 172 to 250; numbered along this chain, Q06546 (parent)
chain: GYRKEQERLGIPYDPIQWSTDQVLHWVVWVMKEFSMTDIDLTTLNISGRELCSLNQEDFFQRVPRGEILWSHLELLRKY

Variants of: B1
Assay overview: abundance fitness (aPCA) (normalised: wild type 0, dead -1); higher = more abundant; growth selection in yeast, the domain comes from the species named
Experimental context: Homo sapiens
One number for each entry.

A selection of reference data follows.
E67I
-0.189
E67N
-0.077
R3K
-0.083
I16T
-0.065
L76E
-0.521

Give abundance fitness for each listed item.
1. C52E
2. V28D

Response:
1: -0.457; 2: 0.017

Give abundance fitness for each listed item.
1. G48S
2. F60A
3. T20D
4. L73W
5. R65G
6. W29E
7. K78S
8. H25G

Response:
1: -0.804; 2: -0.03; 3: -0.101; 4: -0.173; 5: 0.007; 6: -0.701; 7: -0.045; 8: -0.207

Give abundance fitness for each listed item.
1. Y79I
2. I68L
3. S71D
4. S71M

Response:
1: -0.09; 2: -0.037; 3: 0.027; 4: -0.162

Give abundance fitness for each listed item.
1. G48C
2. F60I
3. W29G

Response:
1. -0.919
2. 0.039
3. -0.776
